Source of measurements: patent US7786113B2

Src (p60^c-src) (Homo sapiens): recorded pIC50 for assorted compounds
Sequence (P12931 whole entry): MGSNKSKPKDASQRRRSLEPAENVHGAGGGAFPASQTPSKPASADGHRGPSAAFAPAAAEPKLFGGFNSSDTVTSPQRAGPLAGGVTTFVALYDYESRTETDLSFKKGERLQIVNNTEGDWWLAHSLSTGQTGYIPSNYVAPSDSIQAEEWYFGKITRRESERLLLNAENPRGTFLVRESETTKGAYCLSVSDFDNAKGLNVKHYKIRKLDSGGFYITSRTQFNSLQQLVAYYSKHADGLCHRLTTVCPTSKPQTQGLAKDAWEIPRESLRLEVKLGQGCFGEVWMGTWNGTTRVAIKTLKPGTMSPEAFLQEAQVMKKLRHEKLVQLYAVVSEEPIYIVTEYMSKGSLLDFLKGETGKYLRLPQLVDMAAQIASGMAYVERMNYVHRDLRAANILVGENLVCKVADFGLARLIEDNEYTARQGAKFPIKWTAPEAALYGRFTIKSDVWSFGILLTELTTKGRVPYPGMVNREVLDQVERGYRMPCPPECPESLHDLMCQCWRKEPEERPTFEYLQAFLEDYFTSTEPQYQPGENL
pIC50: −log10 of the molar value.
measurement_kind: pIC50

>>> recorded_measurement("CC(C)OC(=O)Nc1cnc2[nH]c(-c3cccc(NS(C)(=O)=O)c3)nc2c1")
"6.30 to 8.00"
>>> recorded_measurement("CCC(C)OC(=O)Nc1cnc2[nH]c(-c3ccccc3)nc2c1 (stereo not drawn)")
"6.30 to 8.00"
>>> recorded_measurement("CC(C)OC(=O)Nc1cnc2[nH]c(-c3ccc([S+](C)[O-])cc3)nc2c1 (stereo not drawn)")
"6.30 to 8.00"
